FYI, the data here is from the supplement of paper PMC10567573.

B1: ACSBG2 (parent)
chain: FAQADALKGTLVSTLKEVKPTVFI

variants of: B1; test: protein stability index of a GFP-peptide fusion (GPS, HEK-293T) (PSI 1-6); higher = more stable; conditions: c terminus: a fixed tail appended;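 further: lentivirally expressed fusions sorted by FACS into six bins by GFP to DsRed ratio, PSI derived from sequencing read proportions per bin multiplied by bin number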
value.type: protein stability index

>>> print(df.to_string())
    change               value_type  measured_number
 0     A4T  protein stability index             1.94
 1    S13R  protein stability index             1.46
 2     G9W  protein stability index             3.93
 3    K16E  protein stability index             2.38
 4    S13V  protein stability index             4.44
 5    I24M  protein stability index             1.16
 6    V12R  protein stability index             2.08
 7    I24P  protein stability index             2.27
 8    F23L  protein stability index             2.52
 9    V18C  protein stability index             3.06
10     G9T  protein stability index             1.38
11    F23C  protein stability index             2.52
12    S13L  protein stability index             2.05
13     A4V  protein stability index             1.48
14    V22K  protein stability index             2.45
15     G9Y  protein stability index             1.78
16    F23D  protein stability index             2.62
17    F23Y  protein stability index             2.32
18    V12D  protein stability index             1.81
19     D5N  protein stability index              1.9
20    P20K  protein stability index             1.25
21    F23V  protein stability index             2.18
22    L15W  protein stability index             1.66
23    K19C  protein stability index             2.65
